# System: P.aeruginosa
# PROTOCOL: In vitro antibacterial activity, MIC by broth dilution in 96-well trays
# Format: cell-based
# CONDITION SUMMARY: Pseudomonas aeruginosa, P.aeruginosa strain 5700
Structures can show the parent of a compound that is named as a salt.

COMPOUND	MIC
CC1(C)S[C@@H]2[C@H](N=CN3CCC(CC4=NCCCN4)CC3)C(=O)N2[C@H]1C(=O)O [Compound U, hydrochloride]	0.5 µg/mL
CC1(C)S[C@@H]2[C@H](N=CN3CCC(CCCn4ccnc4CO)CC3)C(=O)N2[C@H]1C(=O)O [R, hydrate]	> 128 µg/mL
CN(C)C=Nc1nccn1CCCC1CCN(C=N[C@@H]2C(=O)N3[C@@H]2SC(C)(C)[C@@H]3C(=O)O)CC1 [S, hydrate]	> 128 µg/mL
CC1(C)S[C@@H]2[C@H](N=CN3CCCC(c4ncc[nH]4)C3)C(=O)N2[C@H]1C(=O)O (some centres unmarked) [P, hydrochloride]	8 µg/mL
CC1(C)S[C@@H]2[C@H](N=CN3CCC(Cc4ncc[nH]4)CC3)C(=O)N2[C@H]1C(=O)O [Q, hydrochloride]	0.125 µg/mL

###

# Tested on: S. pyogenes
# PROTOCOL: In vitro antibacterial activity, MIC by broth dilution in 96-well trays
# Type: cell-based
# CONDITION SUMMARY: Streptococcus pyogenes, S. pyogenes strain 503-782
Structures can show the parent of a compound that is named as a salt.
# maps each entry to its MIC

MOLECULE	UNIT ANNOTATION	RELATION SYMBOL	MIC
CN(C)C=Nc1nccn1CCCC1CCN(C=N[C@@H]2C(=O)N3[C@@H]2SC(C)(C)[C@@H]3C(=O)O)CC1 [S, hydrate]	µg/mL	=	128
CC1(C)S[C@@H]2[C@H](N=CN3CCC(CC4=NCCCN4)CC3)C(=O)N2[C@H]1C(=O)O [Compound U, hydrochloride]	µg/mL	>	128
CC1(C)S[C@@H]2[C@H](N=CN3CCC(CCCn4ccnc4CO)CC3)C(=O)N2[C@H]1C(=O)O [R, hydrate]	µg/mL	=	128
CC1(C)S[C@@H]2[C@H](N=CN3CCC(Cc4ncc[nH]4)CC3)C(=O)N2[C@H]1C(=O)O [Q, hydrochloride]	µg/mL	=	128
CC1(C)S[C@@H]2[C@H](N=CN3CCCC(c4ncc[nH]4)C3)C(=O)N2[C@H]1C(=O)O (some centres unmarked) [P, hydrochloride]	µg/mL	=	64

###

# Test system: S. pneumoniae
# PROTOCOL: In vitro antibacterial activity, MIC by broth dilution in 96-well trays
# Type: cell-based
# CONDITION SUMMARY: Streptococcus pneumoniae, S. pneumoniae strain SC
Counter-ions that a name gives are not always drawn.
MIC by entry:

COMPOUND	TARGET UNDER TEST	MIC, mg/L
CN(C)C=Nc1nccn1CCCC1CCN(C=N[C@@H]2C(=O)N3[C@@H]2SC(C)(C)[C@@H]3C(=O)O)CC1 [S, hydrate]	S. pneumoniae	0.5
CC1(C)S[C@@H]2[C@H](N=CN3CCCC(c4ncc[nH]4)C3)C(=O)N2[C@H]1C(=O)O (some centres unmarked) [P, hydrochloride]	S. pneumoniae	1
CC1(C)S[C@@H]2[C@H](N=CN3CCC(CC4=NCCCN4)CC3)C(=O)N2[C@H]1C(=O)O [Compound U, hydrochloride]	S. pneumoniae	4
CC1(C)S[C@@H]2[C@H](N=CN3CCC(Cc4ncc[nH]4)CC3)C(=O)N2[C@H]1C(=O)O [Q, hydrochloride]	S. pneumoniae	2
CC1(C)S[C@@H]2[C@H](N=CN3CCC(CCCn4ccnc4CO)CC3)C(=O)N2[C@H]1C(=O)O [R, hydrate]	S. pneumoniae	0.5

###

# Tested on: S. aureus
# PROTOCOL: In vitro antibacterial activity, MIC by broth dilution in 96-well trays
# Format: cell-based
# CONDITION SUMMARY: Staphylococcus aureus, S. aureus strain 1059B
# Procedure: The in vitro antibacterial activity of the following compounds: The diluted agents are dispensed in 100 µl amounts into the wells of a 96-well tray and used immediately or frozen at -10 to -70°C until needed. Using an automated inoculator, 1.5 µl of a 10^-2 dilution of an overnight culture is added to each well of the tray. The tops of the trays are then sealed using transparent tape and incubated overnight at 37°C. The trays are examined with the aid of a viewer. […]
Structures can show the parent of a compound that is named as a salt.
REPORTED ENDPOINT: MIC (µg/mL)

COMPOUND	TARGET UNDER TEST	REPORTED ENDPOINT	RELATION SYMBOL	VALUE
CC1(C)S[C@@H]2[C@H](N=CN3CCC(Cc4ncc[nH]4)CC3)C(=O)N2[C@H]1C(=O)O [Q, hydrochloride]	S. aureus	MIC	=	128
CN(C)C=Nc1nccn1CCCC1CCN(C=N[C@@H]2C(=O)N3[C@@H]2SC(C)(C)[C@@H]3C(=O)O)CC1 [S, hydrate]	S. aureus	MIC	=	64
CC1(C)S[C@@H]2[C@H](N=CN3CCCC(c4ncc[nH]4)C3)C(=O)N2[C@H]1C(=O)O (some centres unmarked) [P, hydrochloride]	S. aureus	MIC	=	64
CC1(C)S[C@@H]2[C@H](N=CN3CCC(CC4=NCCCN4)CC3)C(=O)N2[C@H]1C(=O)O [Compound U, hydrochloride]	S. aureus	MIC	>	128
CC1(C)S[C@@H]2[C@H](N=CN3CCC(CCCn4ccnc4CO)CC3)C(=O)N2[C@H]1C(=O)O [R, hydrate]	S. aureus	MIC	=	64

###

# MIC listing for each entry below
# Tested on: P.aeruginosa
# PROTOCOL: In vitro antibacterial activity, MIC by broth dilution in 96-well trays
# Type: cell-based
# CONDITION SUMMARY: Pseudomonas aeruginosa, P.aeruginosa strain 8710
Where a name gives a salt, the structure may show the parent alone.

MOLECULE	MIC
CN(C)C=Nc1nccn1CCCC1CCN(C=N[C@@H]2C(=O)N3[C@@H]2SC(C)(C)[C@@H]3C(=O)O)CC1 [S, hydrate]	> 128 µg/mL
CC1(C)S[C@@H]2[C@H](N=CN3CCCC(c4ncc[nH]4)C3)C(=O)N2[C@H]1C(=O)O (some centres unmarked) [P, hydrochloride]	> 128 µg/mL
CC1(C)S[C@@H]2[C@H](N=CN3CCC(CC4=NCCCN4)CC3)C(=O)N2[C@H]1C(=O)O [Compound U, hydrochloride]	> 128 µg/mL
CC1(C)S[C@@H]2[C@H](N=CN3CCC(CCCn4ccnc4CO)CC3)C(=O)N2[C@H]1C(=O)O [R, hydrate]	> 128 µg/mL
CC1(C)S[C@@H]2[C@H](N=CN3CCC(Cc4ncc[nH]4)CC3)C(=O)N2[C@H]1C(=O)O [Q, hydrochloride]	128 µg/mL
